molecular target: beta amyloid peptide Aβ(1-40) (Homo sapiens, UniProt P05067); construct: 0.5 mg/mL AP (140) peptide in 20% HFIP+0.1 μL/assay radioiodinated ^125I Aβ(1-40); assay: BAPA (Beta-Amyloid Peptide Aggregation), pH 6.0; conditions: Aβ(1-40) 33 μM, pH 6.0, 2 to 4 hours at room temperature, filtration
Sequence (P05067 672-711 limits assumed): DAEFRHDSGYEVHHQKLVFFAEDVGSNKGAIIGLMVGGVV
pIC50: −log10 of the molar value.
Measured pIC50, listed per entry.
measured-attribute: pIC50

smiles-structure	target-under-test	measurement
CCCCN(CCCC)c1ccc(/C=C2\SC(=S)N(Cc3nnn[nH]3)C2=O)cc1	beta amyloid peptide Aβ(1-40) (Homo sapiens, UniProt P05067)	< 4.00
CCCC1CCN(c2ccc(/C=C3\SC(=S)N(CC(=O)NS(=O)(=O)c4ccccc4)C3=O)cc2)CC1	beta amyloid peptide Aβ(1-40) (Homo sapiens, UniProt P05067)	< 4.22
CCCCN(CCCC)c1ccc(/C=C2\SC(=S)N(CC(=O)NS(C)(=O)=O)C2=O)cc1	beta amyloid peptide Aβ(1-40) (Homo sapiens, UniProt P05067)	< 4.00
CCCC1CCN(c2ccc(/C=C3\SC(=S)N(Cc4nnn[nH]4)C3=O)cc2)CC1	beta amyloid peptide Aβ(1-40) (Homo sapiens, UniProt P05067)	< 4.22
CCCC1CCN(c2ccc(/C=C3\SC(=S)N(Cc4cc(=O)c(O)co4)C3=O)cc2)CC1	beta amyloid peptide Aβ(1-40) (Homo sapiens, UniProt P05067)	< 4.22

Data provenance is patent US20040197268A1.
